Target: T1, RNF-MD complex (strep-SUMO-RNF20 residues 321–900 with MBP-RNF40 residues 327–926) (human, UniProt Q5VTR2 321-900; O75150 327-926)
T1 construct: RNF20, human, residues 321-900; RNF40, human, residues 327-926; heterodimer; also called RNF20/RNF40; WT; source: E. coli BL21 Rosetta (DE3), purified from the mixed cell extract (strep-tactin, dextrin, gel filtration); copies: 1 + 1
T1 sequence (Q5VTR2 321-900, chain 1 of 2): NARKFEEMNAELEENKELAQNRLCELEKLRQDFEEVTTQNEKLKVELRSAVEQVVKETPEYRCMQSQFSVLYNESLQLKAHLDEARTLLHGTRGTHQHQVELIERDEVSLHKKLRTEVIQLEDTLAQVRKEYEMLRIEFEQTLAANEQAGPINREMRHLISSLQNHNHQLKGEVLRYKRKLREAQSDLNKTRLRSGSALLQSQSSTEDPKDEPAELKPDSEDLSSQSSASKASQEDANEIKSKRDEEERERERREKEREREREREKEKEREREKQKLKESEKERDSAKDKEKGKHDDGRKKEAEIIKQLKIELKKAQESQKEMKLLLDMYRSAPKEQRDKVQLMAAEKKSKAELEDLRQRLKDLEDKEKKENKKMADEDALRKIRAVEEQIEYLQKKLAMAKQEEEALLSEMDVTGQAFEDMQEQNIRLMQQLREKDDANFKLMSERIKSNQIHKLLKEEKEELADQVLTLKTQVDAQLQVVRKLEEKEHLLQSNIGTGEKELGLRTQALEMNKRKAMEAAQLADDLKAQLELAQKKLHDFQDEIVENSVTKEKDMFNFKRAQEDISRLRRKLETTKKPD
T1 sequence (O75150 327-926, chain 2 of 2): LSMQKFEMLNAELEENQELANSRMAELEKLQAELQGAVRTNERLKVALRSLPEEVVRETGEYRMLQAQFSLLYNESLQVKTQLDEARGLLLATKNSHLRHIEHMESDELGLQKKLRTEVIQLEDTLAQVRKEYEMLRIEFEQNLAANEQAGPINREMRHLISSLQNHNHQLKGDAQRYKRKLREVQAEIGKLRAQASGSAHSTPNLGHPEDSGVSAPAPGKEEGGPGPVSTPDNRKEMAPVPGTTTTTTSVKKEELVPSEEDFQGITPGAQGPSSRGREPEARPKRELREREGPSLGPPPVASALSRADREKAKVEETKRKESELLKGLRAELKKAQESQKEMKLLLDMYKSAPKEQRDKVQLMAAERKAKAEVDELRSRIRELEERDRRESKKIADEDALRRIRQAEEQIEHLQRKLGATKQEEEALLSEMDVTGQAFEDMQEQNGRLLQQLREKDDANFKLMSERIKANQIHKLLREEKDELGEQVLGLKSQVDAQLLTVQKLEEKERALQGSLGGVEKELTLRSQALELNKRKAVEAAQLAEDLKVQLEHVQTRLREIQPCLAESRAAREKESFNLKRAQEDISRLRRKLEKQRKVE
Assay: SPR; RNF-MD immobilised on a CM5 chip, intein-WAC flown over; Biacore 8K, 25°C, 20 mM HEPES (pH 7.5), 200 mM sodium chloride, 0.02% Tween 20
Conditions: both partners purified
reported.property: pKd
Schema: pKd number; meaning minus log10 of the concentration expressed in molar units.

binder	pKd
intein-WAC S5 (E635K/E637K/K640E) (domain or fragment, human, UniProt Q9BTA9 570-647, looked up, WAC, human, residues 570-647; source: purified (Ni-NTA, heparin, gel filtration)) HVQGWPADHAEKQASRLREEAHNMGTIHMSEICTELKNLRSLVRVCEIQATLREQRILFLRQQIKKLKKLENQNSFMV	6.49
intein-WAC S4 (R630E) (domain or fragment, human, UniProt Q9BTA9 570-647, looked up, WAC, human, residues 570-647; source: purified (Ni-NTA, heparin, gel filtration)) HVQGWPADHAEKQASRLREEAHNMGTIHMSEICTELKNLRSLVRVCEIQATLREQRILFLEQQIKELEKLKNQNSFMV	5.92
intein-CBD-tagged WAC-CT (WAC residues 570–647) (domain or fragment, human, UniProt Q9BTA9 570-647, looked up, WAC, human, residues 570-647; purified on Ni-NTA although no histidine tag is named; also called intein-WAC; WT; source: purified (Ni-NTA, heparin, gel filtration)) HVQGWPADHAEKQASRLREEAHNMGTIHMSEICTELKNLRSLVRVCEIQATLREQRILFLRQQIKELEKLKNQNSFMV	6.30

Consider the record given below.
Req: Quick one: give measured pKd for intein-WAC S1 (D577K/E580K/R587E) (domain or fragment, human, UniProt Q9BTA9 570-647, looked up, WAC, human, residues 570-647; source: purified (Ni-NTA, heparin, gel filtration)) HVQGWPAKHAKKQASRLEEEAHNMGTIHMSEICTELKNLRSLVRVCEIQATLREQRILFLRQQIKELEKLKNQNSFMV
Resp: 6.29
